test system: MCF10A; test: percent viability (nuclei count relative to siNT); higher = more viable cells; conditions: 20 nM; 72 h
measurement name: percent viability (%)
Lab book: enter the figure in %, no units written.

Sample records with percent viability:
sequence text	result units	percent viability
AUCUAAAUGCAGCAUGCCAGUC [hsa-miR-4799-5p]	%	59.9
CCAUGGAUCUCCAGGUGGGU [hsa-miR-490-5p]	%	63.5
AUGGAGCUGGAACCAGAUCAGGC [hsa-miR-6874-5p]	%	30.7
UUACACAGCUGGACAGAGGCA [hsa-miR-4672]	%	17.6
UUGGGCCCAGGAGUAAACAGGAU [hsa-miR-6773-5p]	%	40.3
CUUGGGGCAUGGAGUCCCA [hsa-miR-4260]	%	37.7
UGAGGGAGUGGGUGGGAGG [hsa-miR-6127]	%	39.8
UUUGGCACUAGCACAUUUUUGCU [hsa-miR-96-5p]	%	28.4
GGGAAAAGGAAGGGGGAGGA [hsa-miR-6124]	%	180
CUGUGGGCUCAGCUCUGGG [hsa-miR-4265]	%	27.1

Exercise: Can you look up the measured percent viability of AGCUUCCAUGACUCCUGAUGGA [hsa-miR-2115-5p] for me?
Key: 137
